Biological target: F508del in NIH 3T3 cells (Homo sapiens, UniProt P13569, DEL508-508)
Construct: expressed in transfected cells
Sequence (P13569 with tags, fused parts or gaps DEL508-508): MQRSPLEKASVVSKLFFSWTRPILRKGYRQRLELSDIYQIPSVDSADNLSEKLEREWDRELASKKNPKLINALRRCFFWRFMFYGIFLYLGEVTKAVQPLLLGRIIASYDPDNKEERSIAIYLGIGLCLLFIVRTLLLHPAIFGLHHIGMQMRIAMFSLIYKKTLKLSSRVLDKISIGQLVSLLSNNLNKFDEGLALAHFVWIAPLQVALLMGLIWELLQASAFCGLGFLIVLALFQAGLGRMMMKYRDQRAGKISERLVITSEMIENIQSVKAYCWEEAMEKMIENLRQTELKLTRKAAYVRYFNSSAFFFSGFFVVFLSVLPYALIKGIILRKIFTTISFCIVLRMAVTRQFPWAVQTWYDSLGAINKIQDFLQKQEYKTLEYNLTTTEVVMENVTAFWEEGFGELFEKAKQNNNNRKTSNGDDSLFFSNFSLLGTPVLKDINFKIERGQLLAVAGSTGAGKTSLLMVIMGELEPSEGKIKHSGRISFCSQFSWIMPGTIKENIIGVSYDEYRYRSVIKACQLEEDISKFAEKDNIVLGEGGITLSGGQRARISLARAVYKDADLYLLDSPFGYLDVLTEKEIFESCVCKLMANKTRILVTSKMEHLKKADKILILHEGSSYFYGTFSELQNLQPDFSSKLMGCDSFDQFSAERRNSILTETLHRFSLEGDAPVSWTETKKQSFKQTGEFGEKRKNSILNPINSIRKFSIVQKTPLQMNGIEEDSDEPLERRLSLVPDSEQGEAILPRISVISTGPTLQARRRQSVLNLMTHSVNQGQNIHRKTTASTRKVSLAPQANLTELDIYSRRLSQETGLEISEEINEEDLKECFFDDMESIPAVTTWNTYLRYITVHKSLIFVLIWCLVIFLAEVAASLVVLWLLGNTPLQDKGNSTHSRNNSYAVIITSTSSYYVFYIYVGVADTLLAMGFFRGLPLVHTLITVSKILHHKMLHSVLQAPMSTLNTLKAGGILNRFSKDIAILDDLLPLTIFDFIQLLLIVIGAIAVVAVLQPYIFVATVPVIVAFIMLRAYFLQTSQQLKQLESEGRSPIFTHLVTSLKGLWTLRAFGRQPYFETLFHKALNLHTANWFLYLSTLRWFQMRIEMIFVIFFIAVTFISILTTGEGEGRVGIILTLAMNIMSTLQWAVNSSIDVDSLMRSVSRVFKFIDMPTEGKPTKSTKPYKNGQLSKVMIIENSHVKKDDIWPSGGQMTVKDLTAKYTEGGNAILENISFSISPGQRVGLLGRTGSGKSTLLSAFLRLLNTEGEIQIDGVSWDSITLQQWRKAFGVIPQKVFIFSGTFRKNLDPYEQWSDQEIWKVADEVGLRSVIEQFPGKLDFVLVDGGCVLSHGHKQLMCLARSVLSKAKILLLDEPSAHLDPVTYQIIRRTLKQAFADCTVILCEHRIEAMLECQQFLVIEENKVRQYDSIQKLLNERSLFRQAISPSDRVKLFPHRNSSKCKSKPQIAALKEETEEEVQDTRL
Experiment: 3T3 assay: membrane potential optical assay for F508del correction
Type: cell-based
Settings: NIH3T3; NIH 3T3 cells, F508del; read-out: 3T3 Max Activity (%)
PROPERTY NAME: Emax

Completed entries (count: 5):
Given the entry `Cc1cc(C)c(-n2nc(NS(=O)(=O)c3ccccc3)cc2C2=CCCCC2)c(C)c1` , report its measured Emax.
> 60%

What value of Emax has been recorded for this entry: `Cc1cc(C)c(-n2nc(NS(=O)(=O)c3ccccc3)cc2-c2ccc(Cl)cc2)c(C)c1`
30 to 60%

Sample `C=C(C)c1cn(Cc2ccccc2)nc1NS(=O)(=O)c1ccccc1` — what was its Emax?
< 30%

What value of Emax has been reported for the following compound? `O=S(=O)(Nc1ncc(Cc2ccccc2)s1)c1ccccc1`
30 to 60%

Any idea what Emax was measured for `O=S(=O)(Nc1nn(-c2cccc(Cl)c2)cc1C1=CCCCC1)c1ccccc1` ?
30 to 60%

***
Fill blank: measured Emax of the compound `O=S(=O)(Nc1nn(-c2ccccc2)cc1Cc1ccccc1)c1ccccc1` is ____.
< 30%

Need Emax of `O=S(=O)(Nc1cc(-c2ccccc2)nc(Oc2ccccc2)n1)c1ccccc1` , thanks.
30 to 60%

Look up Emax for this compound: `CCCc1sc(NS(=O)(=O)c2ccccc2)nc1-c1ccc(OCC)cc1`
30 to 60%

# input compound: `Cc1ccc(-c2nc(NS(=O)(=O)c3ccccc3)ccc2C)cc1C` ; wanted: its Emax
> 60%

* * *

Target: F508del in NIH 3T3 cells (Homo sapiens, UniProt P13569, DEL508-508)
Construct: expressed in transfected cells
Assay: 3T3 assay: membrane potential optical assay for F508del correction
Format: cell-based
Conditions: NIH3T3; NIH 3T3 cells, F508del; read-out: 3T3 Max Activity (%)
Emax values for the compounds below.

Field: example entries. Status: answers known.
I have this compound here, `C/C=C/c1ccc(NS(=O)(=O)c2ccccc2)nc1Oc1ccccc1` , and I need its recorded Emax.
> 60%

Which value of Emax has been reported for `Cc1cc(C)c(-n2cc(-c3ccccc3)c(NS(=O)(=O)c3ccccc3)n2)c(C)c1` in the records?
30 to 60%

Consider the compound shown here: `O=S(=O)(Nc1nc(-c2ccc(Cl)cc2)c(S(=O)(=O)c2ccccc2)s1)c1ccccc1` What is its recorded Emax?
30 to 60%

Suppose we examine the compound `Cc1sc(NS(=O)(=O)c2ccccc2)nc1-c1ccccc1` ; what Emax value has been reported?
> 60%

Fill blank: measured Emax of the compound `COc1ccccc1-c1cn(-c2cccc(Cl)c2)nc1NS(=O)(=O)c1ccccc1` is ____.
30 to 60%

Continuing:
Given `O=S(=O)(Nc1cc(-c2ccccc2)nc(-c2ccccc2)n1)c1ccccc1` , state its recorded Emax.
> 60%

So what does the record say about Emax for `CC(C)(C)CCNC(=O)c1sc(NS(=O)(=O)c2ccccc2)nc1-c1ccccc1` ?
30 to 60%

# query: Emax of entry `O=S(=O)(Nc1nn(-c2ccccc2)cc1C1CCCCC1)c1ccccc1`
< 30%

* * *

Target: F508del in NIH 3T3 cells (Homo sapiens, UniProt P13569, DEL508-508)
Construct: expressed in transfected cells
Assay: 3T3 assay: membrane potential optical assay for F508del correction
Assay type: cell-based
Settings: NIH 3T3 cells, F508del; read-out: 3T3 EC50
pEC50: −log10 of the molar value.
PROPERTY NAME: pEC50

Some solved entries appear below for comparison.
Can you look up pEC50 on F508del in NIH 3T3 cells (Homo sapiens, UniProt P13569, DEL508-508) for `Cc1cccc(-c2nc(NS(=O)(=O)c3ccccc3)cc(C)c2C)c1C` ?
4.52 to 5.52

Item: `CCCc1sc(NS(=O)(=O)c2ccccc2)nc1-c1ccc(C)cc1` Test system: F508del in NIH 3T3 cells (Homo sapiens, UniProt P13569, DEL508-508) Read-out: pEC50 Value: ?
> 6.00

Form field: pEC50 recorded for `Cc1ccc(-c2nc(NS(=O)(=O)c3ccccc3)cc(C)c2C)cc1C` with F508del in NIH 3T3 cells (Homo sapiens, UniProt P13569, DEL508-508) (enter value)
5.52 to 6.00

Missing value: pEC50, F508del in NIH 3T3 cells (Homo sapiens, UniProt P13569, DEL508-508), entry `COc1ccccc1-c1cn(-c2cccc(Cl)c2)nc1NS(=O)(=O)c1ccccc1` . Fill in?
5.52 to 6.00

Any idea what pEC50 came out for `O=S(=O)(Nc1ncc(-c2ccccc2)nc1-c1ccccc1)c1ccccc1` on F508del in NIH 3T3 cells (Homo sapiens, UniProt P13569, DEL508-508)?
5.52 to 6.00

Lab note: need pEC50 for `COC(=O)c1sc(NS(=O)(=O)c2ccccc2)nc1-c1ccc(C)cc1` on F508del in NIH 3T3 cells (Homo sapiens, UniProt P13569, DEL508-508), anyone have it?
4.52 to 5.52

Query for F508del in NIH 3T3 cells (Homo sapiens, UniProt P13569, DEL508-508): what pEC50 does the record show for `CCCc1sc(NS(=O)(=O)c2ccccc2)nc1-c1ccc(OCC)cc1` ?
5.52 to 6.00

Kindly state the measured pEC50 obtained for `Cc1ccc(-c2nc(NS(=O)(=O)c3ccccc3)cc(C)c2C)c(C)c1` with F508del in NIH 3T3 cells (Homo sapiens, UniProt P13569, DEL508-508).
4.52 to 5.52

***
Record lookup: for F508del in NIH 3T3 cells (Homo sapiens, UniProt P13569, DEL508-508), what pEC50 belongs to `O=c1c(NS(=O)(=O)c2ccccc2)nc(-c2ccccc2)cn1-c1ccccc1` ?
5.52 to 6.00

Where these numbers come from: patent US20230373939A1
